testMethodNotes: acute toxicity, Behrens-Karber's method
Format: in vivo
conditionSet: in vivo; mouse, oral
Description: In this example, the acute toxicity of compounds of the invention is determined by Behrens-Karber's method using, 5 male dd-strain for each group weighing 20±1 g. A 0.3% CMC suspension of the test compound (concentration of the test compound: 100 mg/ml) is then orally administered to each mouse.
For each of the molecules below, state its LD50.

The examples below pair each entry with its known result.
{"columns": ["molecule", "recordedResult"],
 "data": [
  ["O=C(NCCO)c1ccccc1SSc1ccccc1C(=O)NCCO", "≥ 2000 mg/kg"],
  ["O=C(NCCCN1CCOCC1)c1ccccc1SSc1ccccc1C(=O)NCCCN1CCOCC1", "≥ 1000 mg/kg"],
  ["O=C(NCCO)c1cc(Cl)ccc1SSc1ccc(Cl)cc1C(=O)NCCO", "≥ 1000 mg/kg"],
  ["O=C(NC1CCCCC1)c1ccccc1SSc1ccccc1C(=O)NC1CCCCC1 [Compound XXVI, 2,2'-dithiobis(N-cyclohexylbenzamide)]", "≥ 1000 mg/kg"],
  ["CCCCCCCCCCCC(=O)OCCNC(=O)c1ccccc1SSc1ccccc1C(=O)NCCOC(=O)CCCCCCCCCCC", "≥ 1000 mg/kg"],
  ["CCCCN(CCCC)C(=O)c1ccccc1SSc1ccccc1C(=O)N(CCCC)CCCC [Compound VIII, 2,2'-dithiobis(N-dibutylbenzamide)]", "≥ 1000 mg/kg"],
  ["O=C(NCc1ccccc1)c1ccccc1SSc1ccccc1C(=O)NCc1ccccc1 [Compound II, 2,2'-dithiobis(N-benzylbenzamide)]", "≥ 300 mg/kg"],
  ["O=C(Nc1ccccc1[N+](=O)[O-])c1ccccc1SSc1ccccc1C(=O)Nc1ccccc1[N+](=O)[O-] [Compound XII, 2,2'-dithiobis(N-o-nitrophenylbenzamide)]", "≥ 1000 mg/kg"]
]}

Could you tell me LD50 for each of these molecules? They are listed below.
1. COCCNC(=O)c1ccccc1SSc1ccccc1C(=O)NCCOC
2. O=C(Nc1ccccc1Cl)c1ccccc1SSc1ccccc1C(=O)Nc1ccccc1Cl
3. O=C(c1ccccc1SSc1ccccc1C(=O)N1CCOCC1)N1CCOCC1 [Compound XXVII, 2,2'-dithiobis(benzmorpholide)]
4. CCCCNC(=O)c1ccccc1SSc1ccccc1C(=O)NCCCC [Compound I, 2,2'-dithiobis(N-n-butylbenzamide)]
5. O=C(c1ccccc1SSc1ccccc1C(=O)N1CCN(Cc2ccccc2)CC1)N1CCN(Cc2ccccc2)CC1 [Compound IV, 2,2'-dithiobis(N'-benzylbenzpiperazide)]
6. O=C(c1ccccc1SSc1ccccc1C(=O)N1CCN(CC=Cc2ccccc2)CC1)N1CCN(CC=Cc2ccccc2)CC1
7. CC(O)CNC(=O)c1ccccc1SSc1ccccc1C(=O)NCC(C)O (stereo not shown)
8. O=C(NCCNCCO)c1ccccc1SSc1ccccc1C(=O)NCCNCCO

Data returned:
["≥ 1000 mg/kg", "≥ 1000 mg/kg", "≥ 1000 mg/kg", "≥ 300 mg/kg", "≥ 4000 mg/kg", "≥ 1000 mg/kg", "≥ 3000 mg/kg", "≥ 1000 mg/kg"]

###

Tested on: human platelet rich plasma, collagen-induced aggregation
testMethodNotes: inhibition of platelet aggregation in human platelet rich plasma, induced by collagen
Type: cell-based
conditionSet: human PRP, 100 μg/ml, read-out: percentage inhibition, collagen
Description: In this test, 9 vol. of blood is sampled from the carotid artery of rabbits (2 to 2.5 Kg) and placed in a silicon-coated flask containing 1 vol. of 3.8% sodium citrate. […] The aggregation of blood platelets is observed using an aggregometer (made by Bryston Co.) and the degree of aggregation after the addition of aggregation promoting substances is measured by nephelometry, i.e., through increase in light transmission. […]
propertyMeasured: inhibition at 100 µg/mL (%)
Answers are plain numbers, in %.

Some solved cases for reference:
{"columns": ["compound", "inhibition at 100 µg/mL, %"],
 "data": [
  ["O=C(c1ccccc1SSc1ccccc1C(=O)N1CCN(Cc2ccccc2)CC1)N1CCN(Cc2ccccc2)CC1 [Compound IV, 2,2'-dithiobis(N'-benzylbenzpiperazide)]", 75],
  ["COCCNC(=O)c1ccccc1SSc1ccccc1C(=O)NCCOC", 100]
]}

Dear colleague, could you send me inhibition at 100 µg/mL for each of the items below? Thanks.
1. O=C(NCO)c1ccccc1SSc1ccccc1C(=O)NCO [Compound XV, 2,2'-dithiobis(N-hydroxymethylbenzamide)]
2. CCCCCCCCCCCC(=O)OCCNC(=O)c1ccccc1SSc1ccccc1C(=O)NCCOC(=O)CCCCCCCCCCC
3. O=C(NCCO)c1cc(Cl)ccc1SSc1ccc(Cl)cc1C(=O)NCCO
4. O=C(NCCNCCO)c1ccccc1SSc1ccccc1C(=O)NCCNCCO

Data returned:
100
46
100
25
